Overview of recorded melting point for various compounds

[
  {
    "Input Smiles": "COc1ncc(-c2nc3cccc(COc4c(Cl)cc(C[C@H](N)C(=O)O)cc4Cl)c3s2)c(OC)n1",
    "melting point": "210 to 215 °C (dec.)"
  }
]

Sure, the documented melting point for "Cc1cc(C[C@H](N)C(=O)O)cc(C)c1OCc1cccc2nc(-c3ccccc3)oc12" is 203 to 210 °C (dec.)

melting point for "N[C@@H](Cc1cc(Cl)c(OCc2cccc3c(=O)c(CO)c(-c4ccccc4)oc23)c(Cl)c1)C(=O)O" is 218 to 221 °C (dec.)

Note to self: melting point recorded for "N[C@@H](Cc1cccc(Oc2ccc(-c3ccccc3)cc2)c1)C(=O)O" was 214 to 217 °C (dec.)

melting point in this record for "N[C@@H](Cc1cccc(OCCc2ccc3c(c2)CCCC3)c1)C(=O)O" : 198 to 202 °C (dec.)

Lab book: melting point of "N[C@@H](Cc1cc(Cl)c(OCc2cccc3nc(Cc4ccccc4)oc23)c(Cl)c1)C(=O)O" noted as 198 to 200.5 °C (dec.)

Entry "COc1ccc2cc(Oc3cccc(C[C@H](N)C(=O)O)c3)ccc2c1" ; melting point = 202 to 206 °C (dec.)
